- protocol_details: Pharmacokinetic study in rat plasma using HPLC
- Type: in vivo, albino Wistar rats
- experimental_parameters: Wistar, po; rat plasma, 10 mg/kg p.o.
Below: a set of entries, each annotated with reported Cmax.
outcome_measure: Cmax (ng/mL)

- COc1ccc2c(c1)CC1=C2N=C2SC=CN2C1c1cc(OC)c(OC)c(OC)c1 (centres unmarked): 30800
- Clc1ccc(C2C3=C(N=C4SC=CN42)c2ccccc2C3)cc1 (centres unmarked) [Compound 12B]: 40200

* * *

- protocol_details: Pharmacokinetic study in rat plasma using HPLC
- Type: in vivo, albino Wistar rats
- experimental_parameters: Wistar, po; rat plasma, 10 mg/kg p.o.
Below: a set of entries, each annotated with reported AUC(0-inf).
outcome_measure: AUC(0-inf) (µg·h/mL)

* COc1ccc2c(c1)CC1=C2N=C2SC=CN2C1c1cc(OC)c(OC)c(OC)c1 (centres unmarked) [Compound 9B] | 288
* Clc1ccc(C2C3=C(N=C4SC=CN42)c2ccccc2C3)cc1 (centres unmarked) [Compound 12B] | 436

These measurements were taken from paper PMC11201866.
